Tested on: 439559-082-T-J2-PDC spheroid viability
assay.explanation: Anticancer human tumor 439559-082-T-J2-PDC patient-derived colon adenocarcinoma cell line growth inhibition [POLQ]
condition.notes: second compound 0.0316 µM; first compound 3.16 µM; stronger effect = lower value; spheroids with HUVEC and MSC
Method: Multicellular complex tumor spheroid response to Polymerase (POL) inhibitors (novobiocin, ART-558, RP6685) in combination with a variety of drugs and investigational agents in selected tumor cell lines The POL inhibitors (novobiocin, ART-558, and RP6685) were evaluated both individually and in combination with standard of care and investigational anticancer small molecules within a complex spheroid model of solid tumors. . […]
Output: class label from viability, T/C. Mapping: 1 (below 70%), 2 (70% to below 90%), 3 (90% or more)

# compound, label.class
rows = [
    ("CCc1cc2c(N3CCc4c(cc(Cn5ccnc5)cc4-c4cn(C)nc4C(F)(F)F)C3=O)cc(C)nc2c(OC)n1 + Cc1cccc(N(C)C(=O)C2C(O)CCN2c2nc(C)cc(C(F)(F)F)c2C#N)c1", 3),
    ("COc1cc2cc(C(=O)CCC(=O)O)sc2cc1OC + COC1C(OC(N)=O)C(O)C(Oc2ccc3c(O)c(NC(=O)c4ccc(O)c(CC=C(C)C)c4)c(=O)oc3c2C)OC1(C)C", 3),
    ("CC1COCCN1c1cc(-c2ccnn2C)c2ccnc(-c3ccn[nH]3)c2n1 (configuration not stated) + COC1C(OC(N)=O)C(O)C(Oc2ccc3c(O)c(NC(=O)c4ccc(O)c(CC=C(C)C)c4)c(=O)oc3c2C)OC1(C)C", 1),
    ("CC1COCCN1c1cc(C2(S(C)(=N)=O)CC2)nc(-c2ccnc3[nH]ccc23)n1 (configuration not stated) + Cc1cccc(N(C)C(=O)C2C(O)CCN2c2nc(C)cc(C(F)(F)F)c2C#N)c1", 2),
    ("CNCc1ccc(-c2[nH]c3cc(F)cc4c3c2CCNC4=O)cc1 + Cc1cccc(N(C)C(=O)C2C(O)CCN2c2nc(C)cc(C(F)(F)F)c2C#N)c1", 3),
    ("COc1cc2cc(C(=O)CCC(=O)O)sc2cc1OC + Nc1ccc(C#CCN(C(=O)Cc2ncc(C(F)(F)F)cc2C(F)(F)F)c2ccc(F)cc2)nn1", 3),
    ("CCCS(=O)(=O)Nc1ccc(F)c(C(=O)c2c[nH]c3ncc(-c4ccc(Cl)cc4)cc23)c1F + COC1C(OC(N)=O)C(O)C(Oc2ccc3c(O)c(NC(=O)c4ccc(O)c(CC=C(C)C)c4)c(=O)oc3c2C)OC1(C)C", 3),
    ("COc1cc(C2c3cc4c(cc3C(OC3OC5COC(C)OC5C(O)C3O)C3COC(=O)C23)OCO4)cc(OC)c1O (configuration not stated) + Cc1cccc(N(C)C(=O)C2C(O)CCN2c2nc(C)cc(C(F)(F)F)c2C#N)c1", 2),
    ("Nc1ccn(C2OC(CO)C(O)C2(F)F)c(=O)n1 (configuration not stated) + COC1C(OC(N)=O)C(O)C(Oc2ccc3c(O)c(NC(=O)c4ccc(O)c(CC=C(C)C)c4)c(=O)oc3c2C)OC1(C)C", 1),
    ("CCc1cc2c(N3CCc4c(cc(Cn5ccnc5)cc4-c4cn(C)nc4C(F)(F)F)C3=O)ccnc2c(OC)n1 + Nc1ccc(C#CCN(C(=O)Cc2ncc(C(F)(F)F)cc2C(F)(F)F)c2ccc(F)cc2)nn1", 2),
    ("CC1COCCN1c1cc(-c2ccnn2C)c2ccnc(-c3ccn[nH]3)c2n1 (configuration not stated) + Nc1ccc(C#CCN(C(=O)Cc2ncc(C(F)(F)F)cc2C(F)(F)F)c2ccc(F)cc2)nn1", 1),
    ("CNCc1ccc(-c2[nH]c3cc(F)cc4c3c2CCNC4=O)cc1 + COC1C(OC(N)=O)C(O)C(Oc2ccc3c(O)c(NC(=O)c4ccc(O)c(CC=C(C)C)c4)c(=O)oc3c2C)OC1(C)C", 3),
    ("CC1COCCN1c1cc(C2(O)CC3CCC(C2)O3)c2cnn(-c3ccn[nH]3)c2n1 (configuration not stated) + Cc1cccc(N(C)C(=O)C2C(O)CCN2c2nc(C)cc(C(F)(F)F)c2C#N)c1", 1),
    ("CC1COCCN1c1cc(C2(O)CC3CCC(C2)O3)c2cnn(-c3ccn[nH]3)c2n1 (configuration not stated) + Nc1ccc(C#CCN(C(=O)Cc2ncc(C(F)(F)F)cc2C(F)(F)F)c2ccc(F)cc2)nn1", 1),
    ("COc1ccc([C@@H](O)c2cc(-c3ncnc4cc(N5CCOCC5)ccc34)c(F)cc2Cl)nn1 + Nc1ccc(C#CCN(C(=O)Cc2ncc(C(F)(F)F)cc2C(F)(F)F)c2ccc(F)cc2)nn1", 2),
    ("O=c1[nH]cc(F)c(=O)[nH]1 + COC1C(OC(N)=O)C(O)C(Oc2ccc3c(O)c(NC(=O)c4ccc(O)c(CC=C(C)C)c4)c(=O)oc3c2C)OC1(C)C", 2),
    ("CC1COCCN1c1cc(-c2ccnn2C)c2ccnc(-c3ccn[nH]3)c2n1 (configuration not stated) + Cc1cccc(N(C)C(=O)C2C(O)CCN2c2nc(C)cc(C(F)(F)F)c2C#N)c1", 1),
    ("CC1COCCN1c1cc(C2(O)CC3CCC(C2)O3)c2cnn(-c3ccn[nH]3)c2n1 (configuration not stated) + COC1C(OC(N)=O)C(O)C(Oc2ccc3c(O)c(NC(=O)c4ccc(O)c(CC=C(C)C)c4)c(=O)oc3c2C)OC1(C)C", 1),
]

----------
Reported viability, T/C is given for each of the following molecules.
Test system: 439559-082-T-J2-PDC spheroid viability
assay.explanation: Anticancer human tumor 439559-082-T-J2-PDC cell line growth inhibition [POLQ];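 further: spheroids exposed to compounds for seven days before readout; 100% = DMSO vehicle control viability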
condition.notes: second compound 3.16 µM; first compound 0.316 µM; stronger effect = lower value; spheroids with HUVEC and MSC
measured.quantity: viability, T/C (%)

# molecule, measured.quantity, unit.annotation, endpoint.result
rows = [
    ("C=CCn1c(=O)c2cnc(Nc3ccc(N4CCN(C)CC4)cc3)nc2n1-c1cccc(C(C)(C)O)n1 + COC1C(OC(N)=O)C(O)C(Oc2ccc3c(O)c(NC(=O)c4ccc(O)c(CC=C(C)C)c4)c(=O)oc3c2C)OC1(C)C", "viability, T/C", "%", 102),
    ("CC1COCCN1c1cc(C2(O)CC3CCC(C2)O3)c2cnn(-c3ccn[nH]3)c2n1 (stereo not given) + COC1C(OC(N)=O)C(O)C(Oc2ccc3c(O)c(NC(=O)c4ccc(O)c(CC=C(C)C)c4)c(=O)oc3c2C)OC1(C)C", "viability, T/C", "%", 65.3),
    ("CC1COCCN1c1cc(C2(S(C)(=N)=O)CC2)nc(-c2ccnc3[nH]ccc23)n1 (stereo not given) + Cc1cccc(N(C)C(=O)C2C(O)CCN2c2nc(C)cc(C(F)(F)F)c2C#N)c1", "viability, T/C", "%", 99.9),
    ("Nc1ccn(C2OC(CO)C(O)C2(F)F)c(=O)n1 (stereo not given) + Cc1cccc(N(C)C(=O)C2C(O)CCN2c2nc(C)cc(C(F)(F)F)c2C#N)c1", "viability, T/C", "%", 59.4),
    ("C=CCn1c(=O)c2cnc(Nc3ccc(N4CCN(C)CC4)cc3)nc2n1-c1cccc(C(C)(C)O)n1 + Cc1cccc(N(C)C(=O)C2C(O)CCN2c2nc(C)cc(C(F)(F)F)c2C#N)c1", "viability, T/C", "%", 96.5),
]

----------
Reported viability, T/C is given for each of the following molecules.
System: 439559-082-T-J2-PDC spheroid viability
assay.explanation: Anticancer human tumor 439559-082-T-J2-PDC cell line growth inhibition [POLQ];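 further: spheroids exposed to compounds for seven days before readout; 100% = DMSO vehicle control viability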
condition.notes: second compound 10 µM; first compound 0.1 µM; stronger effect = lower value; spheroids with HUVEC and MSC

# molecule, viability, T/C, %
rows = [
    ("CC(C)n1c(=O)n(C)c2cnc3cc(F)c(-c4ccc(OCCCN5CCCCC5)nc4)cc3c21 + COC1C(OC(N)=O)C(O)C(Oc2ccc3c(O)c(NC(=O)c4ccc(O)c(CC=C(C)C)c4)c(=O)oc3c2C)OC1(C)C", 96.9),
    ("C=CCn1c(=O)c2cnc(Nc3ccc(N4CCN(C)CC4)cc3)nc2n1-c1cccc(C(C)(C)O)n1 + Nc1ccc(C#CCN(C(=O)Cc2ncc(C(F)(F)F)cc2C(F)(F)F)c2ccc(F)cc2)nn1", 105),
    ("O=C(Nc1ccc(O)c(NS(=O)(=O)c2ccc(F)cc2)c1)c1ccc(-c2ccccc2)cc1 + COC1C(OC(N)=O)C(O)C(Oc2ccc3c(O)c(NC(=O)c4ccc(O)c(CC=C(C)C)c4)c(=O)oc3c2C)OC1(C)C", 98.7),
    ("CNCc1ccc(-c2[nH]c3cc(F)cc4c3c2CCNC4=O)cc1 + Cc1cccc(N(C)C(=O)C2C(O)CCN2c2nc(C)cc(C(F)(F)F)c2C#N)c1", 92.8),
]
